Record form. Attribute: % inhibition of apolipoprotein B mRNA levels. Fill in for each entry.
Test system: human apolipoprotein B mRNA
test method notes: Inhibition of human apolipoprotein B mRNA levels in HepG2 cells, quantitative real-time PCR
Format: cell-based
run conditions: HepG2 cells, 12.5 nM oligonucleotide, normalized to untreated control, average of two experiments
In the oligonucleotide strings, read from the 5' end, every base follows the letter of its sugar. An asterisk marks phosphorothioate; unmarked linkages are phosphodiester. Other units and linkages are bracketed, terminal groups are in braces. A string of capitals states the bases alone. e = 2'-O-(2-methoxyethyl) (MOE); [5mC] = 5-methylcytosine; d = 2'-deoxy (DNA)
Give bare numbers, in %.

Example entries and their recorded answers appear below.
308638 (GCCTCAGTCTGCTTCGCACC; 1-10-9 MOE gapmer, phosphorothioate, chemistry not fully specified) [compound 308638] : 42
281625 (antisense eA*eG*eG*eT*eT*dA*d[5mC]*d[5mC]*dA*dG*d[5mC]*d[5mC]*dA*d[5mC]*dA*eT*eG*e[5mC]*eA*eG) [compound 281625] : 44
308651 (antisense GCCTCAGTCTGCTTCGCGCC; 7-10-3 2'-MOE gapmer, phosphorothioate, chemistry not fully specified) [compound 308651] : 57
308642 (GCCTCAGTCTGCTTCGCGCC; 3-10-7 MOE gapmer, phosphorothioate, chemistry not fully specified) [compound 308642] : 59
308658 (antisense AGGTTACCAGCCACATGCAG; 9-10-1 2'-MOE gapmer, phosphorothioate, chemistry not fully specified) [compound 308658] : 29
271009 (antisense eG*e[5mC]*e[5mC]*eT*e[5mC]*dA*dG*dT*d[5mC]*dT*dG*d[5mC]*dT*dT*d[5mC]*eG*e[5mC]*eG*e[5mC]*e[5mC]) [compound 271009] : 67

(Q) # get_value(readout='% inhibition of apolipoprotein B mRNA levels', item= 301012 (eG*e[5mC]*e[5mC]*eT*e[5mC]*dA*dG*dT*d[5mC]*dT*dG*d[5mC]*dT*dT*d[5mC]*eG*e[5mC]*eA*e[5mC]*e[5mC]) [compound 301012] )
(A) 63
